system: JAK-STAT signalling in HeLa cells; assay: JAK-STAT signalling assay (OSM-triggered pSTAT1(2)-luciferase reporter in HeLa cells); format: cell-based; conditions: Homo sapiens; HeLa cells, OSM-triggered pSTAT1(2)-luciferase reporter; read-out: STAT signalling EC50
pEC50: −log10 of the molar value.
value_kind: pEC50

- molecule: "O=C(Nc1ccc(-c2cccc3nc(NC(=O)C4CC4)nn23)cc1)c1ccc(C(F)(F)F)cc1"
  result: "< 6.00"
- molecule: "O=C(Nc1nc2cccc(-c3ccc(C(=O)N4CCCC(CO)C4)cc3)n2n1)C1CC1 (stereo not drawn)"
  result: "< 6.00"
- molecule: "O=C(Nc1nc2cccc(-c3ccc(OCC4CCCCC4)cc3)n2n1)C1CC1"
  result: "6.00 to 6.30"
- molecule: "O=C(Nc1ccncc1)c1ccc(-c2cccc3nc(NC(=O)C4CC4)nn23)cc1"
  result: "< 6.00"
- molecule: "O=C(c1ccccc1)c1ccc(-c2cccc3nc(NC(=O)C4CC4)nn23)cc1"
  result: "< 6.00"
- molecule: "O=C(NCc1ccccc1)c1ccc(-c2cccc3nc(NC(=O)C4CC4)nn23)cc1"
  result: "< 6.00"
- molecule: "O=C(Nc1nc2cccc(-c3ccc(NS(=O)(=O)CCc4ccccc4)cc3)n2n1)C1CC1"
  result: "6.00 to 6.30"
- molecule: "O=C(Nc1nc2cccc(-c3ccc(C(=O)N4CCCCC4)cc3)n2n1)C1CC1"
  result: "< 6.00"
- molecule: "CN(C(=O)COc1ccc(-c2cccc3nc(NC(=O)C4CC4)nn23)cc1)c1ccccc1"
  result: "< 6.00"
- molecule: "O=C(Nc1nc2cccc(-c3ccc(-c4cccs4)cc3)n2n1)C1CC1"
  result: "6.00 to 6.30"
- molecule: "O=C(Nc1nc2cccc(-c3ccc(CNc4ncccn4)cc3)n2n1)C1CC1"
  result: "6.00 to 6.30"
- molecule: "CN(C)C1CN(C(=O)c2ccc(-c3cccc4nc(NC(=O)C5CC5)nn34)cc2)C1"
  result: "< 6.00"
- molecule: "O=C(Nc1nc2cccc(-c3ccc(C(=O)N4CCC(O)(Cc5ccccc5)CC4)cc3)n2n1)C1CC1"
  result: "6.30 to 7.00"
- molecule: "O=C(NCCc1cnn(-c2ccccc2)c1)c1ccc(-c2cccc3nc(NC(=O)C4CC4)nn23)cc1"
  result: "6.30 to 7.00"
- molecule: "CC(C)(C)C1CCN(C(=O)c2ccc(-c3cccc4nc(NC(=O)C5CC5)nn34)cc2)CC1"
  result: "< 6.00"
- molecule: "O=C(Nc1nc2cccc(-c3ccc(OCc4ccccn4)cc3)n2n1)C1CC1"
  result: "6.00 to 6.30"
- molecule: "O=C(Nc1nc2cccc(-c3ccc(CN4CCCC(O)C4)cc3)n2n1)C1CC1 (stereo not drawn)"
  result: "< 6.00"
- molecule: "CC1CC(C)CN(C(=O)c2ccc(-c3cccc4nc(NC(=O)C5CC5)nn34)cc2)C1 (stereo not drawn)"
  result: "6.00 to 6.30"
- molecule: "O=C(N[C@H]1CCN(Cc2ccccc2)C1)c1ccc(-c2cccc3nc(NC(=O)C4CC4)nn23)cc1"
  result: "< 6.00"
- molecule: "O=C(Nc1ccc(N2CCOCC2)nc1)c1ccc(-c2cccc3nc(NC(=O)C4CC4)nn23)cc1"
  result: "< 6.00"
- molecule: "O=C(Nc1nc2cccc(-c3ccc(NCc4cccnc4)cc3)n2n1)C1CC1"
  result: "< 6.00"

###

system: JAK-STAT signalling in HeLa cells; test: JAK-STAT signalling assay (OSM-triggered pSTAT1(2)-luciferase reporter in HeLa cells); type: cell-based; details: Homo sapiens; HeLa cells, OSM-triggered pSTAT1(2)-luciferase reporter; read-out: STAT signalling EC50
pEC50: −log10 of the molar value.

- structure_string: "N#CC1CN(C(=O)c2ccc(-c3cccc4nc(NC(=O)C5CC5)nn34)cc2)C1"
  experimental_target: "JAK-STAT signalling in HeLa cells"
  pEC50: "6.00 to 6.30"
- structure_string: "NC(=O)c1ccc(NCc2ccc(-c3cccc4nc(NC(=O)C5CC5)nn34)cc2)cc1"
  experimental_target: "JAK-STAT signalling in HeLa cells"
  pEC50: "< 6.00"
- structure_string: "O=C(NCCc1ccccc1)c1ccc(-c2cccc3nc(NC(=O)C4CC4)nn23)cc1"
  experimental_target: "JAK-STAT signalling in HeLa cells"
  pEC50: "6.30 to 7.00"
- structure_string: "O=C(Nc1cccnc1)c1ccc(-c2cccc3nc(NC(=O)C4CC4)nn23)cc1"
  experimental_target: "JAK-STAT signalling in HeLa cells"
  pEC50: "< 6.00"
- structure_string: "O=C(Nc1nc2cccc(-c3ccc(CNc4cccnc4)cc3)n2n1)C1CC1"
  experimental_target: "JAK-STAT signalling in HeLa cells"
  pEC50: "< 6.00"
- structure_string: "O=C(Nc1nc2cccc(-c3ccc(OC4CCCC4)cc3)n2n1)C1CC1"
  experimental_target: "JAK-STAT signalling in HeLa cells"
  pEC50: "6.30 to 7.00"
- structure_string: "O=C(Nc1nc2cccc(-c3ccc(C(=O)N4CCS(=O)(=O)CC4)cc3)n2n1)C1CC1"
  experimental_target: "JAK-STAT signalling in HeLa cells"
  pEC50: "< 6.00"
- structure_string: "CN(C)CCN(Cc1ccccc1)C(=O)c1ccc(-c2cccc3nc(NC(=O)C4CC4)nn23)cc1"
  experimental_target: "JAK-STAT signalling in HeLa cells"
  pEC50: "< 6.00"
- structure_string: "Cc1n[nH]c(C)c1CCOc1ccc(-c2cccc3nc(NC(=O)C4CC4)nn23)cc1"
  experimental_target: "JAK-STAT signalling in HeLa cells"
  pEC50: "6.30 to 7.00"
- structure_string: "O=C(Nc1nc2cccc(-c3ccc(C(=O)N4CCC(COc5cccnc5)CC4)cc3)n2n1)C1CC1"
  experimental_target: "JAK-STAT signalling in HeLa cells"
  pEC50: "< 6.00"
- structure_string: "COC1CCN(C(=O)c2ccc(-c3cccc4nc(NC(=O)C5CC5)nn34)cc2)CC1"
  experimental_target: "JAK-STAT signalling in HeLa cells"
  pEC50: "< 6.00"

###

test: Microsomal stability, rat liver microsomes; assay type: in vitro ADME; settings: percentage of compound remaining after 60 minutes, 3 μM compound

- compound: "O=C(Nc1nc2cccc(-c3ccc(OCc4ccccc4)c(F)c3)n2n1)C1CC1"
  Microsomal Stability Rat (%): "* (* 0-25)"
- compound: "Cc1noc(C)c1COc1ccc(-c2cccc3nc(NC(=O)C4CC4)nn23)cc1"
  Microsomal Stability Rat (%): "* (* 0-25)"
- compound: "O=C(Nc1nc2cccc(-c3ccc(CNc4ccccn4)cc3)n2n1)C1CC1"
  Microsomal Stability Rat (%): "* (* 0-25)"
- compound: "O=C(Nc1nc2cccc(-c3ccc(CN4CCC(C(F)(F)F)CC4)cc3)n2n1)C1CC1"
  Microsomal Stability Rat (%): "*** (*** 51-75)"
- compound: "NC(=O)c1ccc(COc2ccc(-c3cccc4nc(NC(=O)C5CC5)nn34)cc2)cn1"
  Microsomal Stability Rat (%): "**** (**** 76-100)"
- compound: "Cc1n[nH]c(C)c1CCOc1ccc(-c2cccc3nc(NC(=O)C4CC4)nn23)cc1"
  Microsomal Stability Rat (%): "* (* 0-25)"
- compound: "O=C(Nc1nc2cccc(-c3ccc(CCc4ccccn4)cc3)n2n1)C1CC1"
  Microsomal Stability Rat (%): "* (* 0-25)"
- compound: "O=C(NCCc1ccccc1)c1ccc(-c2cccc3nc(NC(=O)C4CC4)nn23)c(F)c1"
  Microsomal Stability Rat (%): "** (** 26-50)"
- compound: "O=C(NCCOc1ccccc1)c1ccc(-c2cccc3nc(NC(=O)C4CC4)nn23)cc1"
  Microsomal Stability Rat (%): "* (* 0-25)"
- compound: "O=C(Nc1nc2cccc(-c3ccc(-c4cccnc4)cc3)n2n1)C1CC1"
  Microsomal Stability Rat (%): "* (* 0-25)"
- compound: "Cc1cc(COc2ccc(-c3cccc4nc(NC(=O)C5CC5)nn34)cc2)n(C)n1"
  Microsomal Stability Rat (%): "* (* 0-25)"
- compound: "O=C(NCc1ccccc1)c1ccc(-c2cccc3nc(NC(=O)C4CC4)nn23)cc1"
  Microsomal Stability Rat (%): "* (* 0-25)"
- compound: "CCCc1ccc(S(=O)(=O)Nc2ccc(-c3cccc4nc(NC(=O)C5CC5)nn34)cc2)cc1"
  Microsomal Stability Rat (%): "* (* 0-25)"
- compound: "O=C(Nc1nc2cccc(-c3ccc(C(=O)N4CCCN(Cc5ccccc5)CC4)cc3)n2n1)C1CC1"
  Microsomal Stability Rat (%): "* (* 0-25)"
- compound: "O=C(Nc1nc2cccc(-c3ccc(OCc4cccnc4)cc3)n2n1)C1CC1"
  Microsomal Stability Rat (%): "*** (*** 51-75)"
- compound: "O=C(Nc1nc2cccc(-c3ccc(OCc4ccc[n+]([O-])c4)cc3)n2n1)C1CC1"
  Microsomal Stability Rat (%): "**** (**** 76-100)"
- compound: "O=C(Nc1nc2cccc(-c3ccc(C(=O)N4CCS(=O)(=O)CC4)cc3)n2n1)C1CC1"
  Microsomal Stability Rat (%): "**** (**** 76-100)"
- compound: "O=C(Nc1nc2cccc(-c3ccc(CNC4CCS(=O)(=O)C4)cc3)n2n1)C1CC1 (stereo not shown)"
  Microsomal Stability Rat (%): "**** (**** 76-100)"
- compound: "O=C(Nc1nc2cccc(-c3ccc(C(=O)N4CCC(C(=O)c5ccccc5)CC4)cc3)n2n1)C1CC1"
  Microsomal Stability Rat (%): "**** (**** 76-100)"
- compound: "O=C(Nc1nc2cccc(-c3ccc(C(=O)N4CCc5ccccc5C4)cc3)n2n1)C1CC1"
  Microsomal Stability Rat (%): "* (* 0-25)"
- compound: "O=C(CCc1ccccc1)Nc1ccc(-c2cccc3nc(NC(=O)C4CC4)nn23)cc1"
  Microsomal Stability Rat (%): "* (* 0-25)"
- compound: "O=C(Nc1nc2cccc(-c3ccc(CN4CCCC(F)C4)cc3)n2n1)C1CC1 (stereo not shown)"
  Microsomal Stability Rat (%): "** (** 26-50)"
- compound: "O=C(Nc1nc2cccc(-c3ccc(CC(=O)N4CC(F)(F)C4)cc3)n2n1)C1CC1"
  Microsomal Stability Rat (%): "*** (*** 51-75)"
- compound: "O=C(Nc1nc2cccc(-c3ccc(OCc4ccc(-n5cccn5)cc4)cc3)n2n1)C1CC1"
  Microsomal Stability Rat (%): "**** (**** 76-100)"
- compound: "O=C(Nc1nc2cccc(-c3ccc(C(=O)N4CCCC(c5ccccc5)C4)cc3)n2n1)C1CC1 (stereo not shown)"
  Microsomal Stability Rat (%): "* (* 0-25)"
